For each of the substances below, state its % inhibition of SMAD7 mRNA expression.
Test system: human SMAD7 mRNA
assay name: Dose-dependent inhibition of human SMAD7 mRNA expression in Hep3B cells (Example 3, Study 1 and 2)
Format: cell-based
applied conditions: 6670.0 nM, electroporation, approximately 16 hours, Study 2
Strand notation (5' to 3'): a small letter for the sugar, then the base; units joined by * are phosphorothioate-linked, units joined directly phosphodiester-linked; [ ] holds rarer units or linkages, { } end groups; capitals alone tell only the bases. k = constrained ethyl (cEt); [5mC] = 5-methylcytosine; d = 2'-deoxy (DNA)
Numbers only; they are read as %.

Bench note: what % inhibition of SMAD7 mRNA expression did 799734 (antisense kT*k[5mC]*k[5mC]*d[5mC]*dA*dG*dG*dT*dG*dA*dA*d[5mC]*d[5mC]*k[5mC]*kA*k[5mC]) [compound 799734] show?
64

Bench note: what % inhibition of SMAD7 mRNA expression did 772842 (kG*kT*kT*dA*dA*dT*dA*dA*dT*dA*dT*d[5mC]*dT*kT*k[5mC]*k[5mC]; antisense) [compound 772842] show?
65

Bench note: what % inhibition of SMAD7 mRNA expression did 772568 (antisense kA*kG*k[5mC]*d[5mC]*dT*d[5mC]*dT*dT*dG*dA*d[5mC]*dT*dT*k[5mC]*k[5mC]*kG) [compound 772568] show?
58

###

System: human SMAD7 mRNA
assay name: Antisense inhibition of human SMAD7 mRNA expression in Hep3B cells by 3-10-3 cEt gapmers, 10,000 nM, electroporation (Example 2)
Type: cell-based
applied conditions: Hep3B cells, electroporation with 10,000 nM antisense oligonucleotide, approximately 24 hours, primer probe set RTS5062, relative to untreated control cells
Protocol: Antisense oligonucleotides were designed to target human SMAD7 mRNA and were tested for their effects on SMAD7 mRNA expression in vitro. […] After a treatment period of approximately 24 hours, RNA was isolated from the cells and SMAD7 mRNA levels were measured by quantitative real-time PCR. […] SMAD7 mRNA levels were adjusted according to total RNA content, as measured by RIBOGREEN®. […]
Strand notation (5' to 3'): a small letter for the sugar, then the base; units joined by * are phosphorothioate-linked, units joined directly phosphodiester-linked; [ ] holds rarer units or linkages, { } end groups; capitals alone tell only the bases. k = constrained ethyl (cEt); [5mC] = 5-methylcytosine; d = 2'-deoxy (DNA)
Rule: 1 (yes) for % inhibition of SMAD7 mRNA expression not less than 60%, 0 (no) for anything less.

% inhibition of SMAD7 mRNA expression >= 60% for 799145 (antisense k[5mC]*kT*kT*dG*dG*dG*dT*dT*dA*dT*dG*dA*d[5mC]*kG*kG*kA) [compound 799145] ?
0 (no)

% inhibition of SMAD7 mRNA expression >= 60% for 799364 (kT*k[5mC]*k[5mC]*dG*dA*dG*dT*dT*dA*dT*d[5mC]*d[5mC]*d[5mC]*k[5mC]*kA*kT; antisense) [compound 799364] ?
1 (yes)

% inhibition of SMAD7 mRNA expression >= 60% for 798707 (antisense kG*k[5mC]*kT*d[5mC]*dG*dG*d[5mC]*dT*dG*dT*d[5mC]*d[5mC]*dG*kT*k[5mC]*kG) [compound 798707] ?
1 (yes)

% inhibition of SMAD7 mRNA expression >= 60% for 798986 (antisense kG*kA*kT*dG*dA*d[5mC]*d[5mC]*dG*d[5mC]*d[5mC]*d[5mC]*d[5mC]*d[5mC]*k[5mC]*kT*kT) [compound 798986] ?
0 (no)

% inhibition of SMAD7 mRNA expression >= 60% for 799148 (antisense kT*kG*kG*dT*dA*d[5mC]*d[5mC]*dT*dT*dG*dG*dG*dT*kT*kA*kT) [compound 799148] ?
0 (no)

% inhibition of SMAD7 mRNA expression >= 60% for 798985 (antisense kG*kA*k[5mC]*d[5mC]*dG*d[5mC]*d[5mC]*d[5mC]*d[5mC]*d[5mC]*d[5mC]*dT*dT*k[5mC]*kA*kT) [compound 798985] ?
0 (no)

% inhibition of SMAD7 mRNA expression >= 60% for 799380 (antisense k[5mC]*kT*k[5mC]*d[5mC]*dT*dA*d[5mC]*dT*dG*dT*dA*dA*dG*kA*kG*kG) [compound 799380] ?
0 (no)

% inhibition of SMAD7 mRNA expression >= 60% for 799163 (antisense kA*kA*kG*dT*dA*dT*d[5mC]*dA*dT*dA*d[5mC]*dG*dA*kG*kT*kG) [compound 799163] ?
0 (no)

% inhibition of SMAD7 mRNA expression >= 60% for 799406 (antisense kG*kG*kG*dA*dA*d[5mC]*dA*dT*dG*dG*d[5mC]*d[5mC]*dT*kT*kT*k[5mC]) [compound 799406] ?
1 (yes)

% inhibition of SMAD7 mRNA expression >= 60% for 799264 (antisense k[5mC]*k[5mC]*kA*dT*d[5mC]*d[5mC]*dA*dA*d[5mC]*dT*d[5mC]*dT*d[5mC]*kT*kT*kT) [compound 799264] ?
0 (no)

% inhibition of SMAD7 mRNA expression >= 60% for 799072 (antisense kG*k[5mC]*kA*dG*dG*dA*dA*dG*dG*dG*dA*dA*dT*kA*kA*kG) [compound 799072] ?
0 (no)

% inhibition of SMAD7 mRNA expression >= 60% for 798677 (antisense kA*k[5mC]*kA*d[5mC]*d[5mC]*dA*dT*dG*dA*dA*dG*dA*dA*kG*kT*k[5mC]) [compound 798677] ?
0 (no)

% inhibition of SMAD7 mRNA expression >= 60% for 790468 (kG*k[5mC]*kG*dA*dG*dG*dA*dG*dA*dA*dA*dA*dG*kT*k[5mC]*kG; antisense) [compound 790468] ?
0 (no)

% inhibition of SMAD7 mRNA expression >= 60% for 799496 (antisense kG*kG*kG*dT*dG*dA*dG*dG*dT*dG*dG*d[5mC]*dT*kG*k[5mC]*kG) [compound 799496] ?
1 (yes)

% inhibition of SMAD7 mRNA expression >= 60% for 798724 (antisense k[5mC]*kA*k[5mC]*d[5mC]*dG*d[5mC]*d[5mC]*dT*dT*dG*d[5mC]*d[5mC]*d[5mC]*kA*kG*kG) [compound 798724] ?
0 (no)

% inhibition of SMAD7 mRNA expression >= 60% for 799215 (kA*kG*k[5mC]*dA*dA*dA*dG*dT*dG*d[5mC]*dA*dT*d[5mC]*kT*kT*kT; antisense) [compound 799215] ?
0 (no)

% inhibition of SMAD7 mRNA expression >= 60% for 798742 (antisense k[5mC]*kT*k[5mC]*d[5mC]*dT*dT*d[5mC]*dA*dG*dT*dT*dT*d[5mC]*kT*kT*kG) [compound 798742] ?
0 (no)

% inhibition of SMAD7 mRNA expression >= 60% for 798778 (k[5mC]*kA*k[5mC]*dA*dG*d[5mC]*dA*dA*d[5mC]*dA*d[5mC]*dA*dG*k[5mC]*k[5mC]*kT; antisense) [compound 798778] ?
1 (yes)

% inhibition of SMAD7 mRNA expression >= 60% for 799165 (antisense kG*kT*kG*dT*d[5mC]*dG*dA*dA*dG*dT*dA*dT*d[5mC]*kA*kT*kA) [compound 799165] ?
0 (no)

% inhibition of SMAD7 mRNA expression >= 60% for 799404 (antisense kG*kG*kA*dA*d[5mC]*dA*dT*dT*dT*dA*d[5mC]*d[5mC]*d[5mC]*k[5mC]*kT*kG) [compound 799404] ?
1 (yes)

% inhibition of SMAD7 mRNA expression >= 60% for 799126 (antisense kG*kA*k[5mC]*dA*dT*d[5mC]*d[5mC]*d[5mC]*d[5mC]*dG*d[5mC]*dT*dT*kG*k[5mC]*kT) [compound 799126] ?
0 (no)

% inhibition of SMAD7 mRNA expression >= 60% for 799479 (antisense kT*kG*k[5mC]*d[5mC]*d[5mC]*dT*dT*d[5mC]*dT*dG*d[5mC]*dA*dG*kT*kG*kG) [compound 799479] ?
0 (no)

% inhibition of SMAD7 mRNA expression >= 60% for 798761 (kG*kA*k[5mC]*dG*dA*dG*dG*dG*d[5mC]*dG*dG*d[5mC]*dT*kG*k[5mC]*kG; antisense) [compound 798761] ?
0 (no)

% inhibition of SMAD7 mRNA expression >= 60% for 798748 (antisense k[5mC]*kT*k[5mC]*d[5mC]*dA*d[5mC]*dG*dG*d[5mC]*d[5mC]*dT*dG*dG*kA*kG*k[5mC]) [compound 798748] ?
0 (no)

###

For each of the substances below, state its % Inhibition.
Tested on: human SMAD7 mRNA
assay name: Antisense inhibition of human SMAD7 mRNA expression in Hep3B cells by 5-10-5 MOE gapmers, single concentration, electroporation, RT-PCR (Example 1, Study 1 and 2)
Format: cell-based
applied conditions: Study 2, electroporation with 15,000 nM antisense oligonucleotide, 5-10-5 MOE gapmers targeting SEQ ID NO: 1 and 2
Strand notation (5' to 3'): a small letter for the sugar, then the base; units joined by * are phosphorothioate-linked, units joined directly phosphodiester-linked; [ ] holds rarer units or linkages, { } end groups; capitals alone tell only the bases. e = 2'-O-(2-methoxyethyl) (MOE); [5mC] = 5-methylcytosine; d = 2'-deoxy (DNA)

Bench note: what % Inhibition did 771735 (antisense eT*eG*eG*eG*eT*d[5mC]*d[5mC]*d[5mC]*dT*d[5mC]*dA*dA*dG*dA*dG*e[5mC]*eT*e[5mC]*eA*e[5mC]) [compound 771735] show?
38%

Bench note: what % Inhibition did 771924 (antisense eT*e[5mC]*eG*e[5mC]*eT*dG*dA*dT*dA*dG*dT*dT*dA*dA*d[5mC]*e[5mC]*eT*e[5mC]*eT*eG) [compound 771924] show?
9%

Bench note: what % Inhibition did 771401 (antisense eG*e[5mC]*eA*eG*eG*d[5mC]*dG*dA*d[5mC]*dA*dG*d[5mC]*dA*dG*d[5mC]*eA*eG*e[5mC]*eA*eG) [compound 771401] show?
21%

Bench note: what % Inhibition did 771891 (antisense e[5mC]*eT*e[5mC]*e[5mC]*e[5mC]*dA*dA*dG*d[5mC]*d[5mC]*dT*dA*d[5mC]*dA*dT*eA*eT*eT*eT*e[5mC]) [compound 771891] show?
56%

Bench note: what % Inhibition did 771750 (antisense eG*eG*eA*e[5mC]*eA*dA*d[5mC]*dT*dT*dT*dT*d[5mC]*dA*dA*dG*eA*eA*e[5mC]*eT*e[5mC]) [compound 771750] show?
29%

Bench note: what % Inhibition did 771361 (antisense eA*e[5mC]*eA*eG*e[5mC]*dA*d[5mC]*d[5mC]*dT*dT*dG*dT*d[5mC]*dA*d[5mC]*e[5mC]*e[5mC]*eG*eT*e[5mC]) [compound 771361] show?
27%

Bench note: what % Inhibition did 771780 (antisense eA*e[5mC]*eA*eA*eA*d[5mC]*d[5mC]*dT*dT*d[5mC]*d[5mC]*dG*dA*dA*dA*eG*eG*eA*e[5mC]*e[5mC]) [compound 771780] show?
20%

Bench note: what % Inhibition did 771902 (antisense eG*eG*eG*eT*eT*d[5mC]*dT*d[5mC]*d[5mC]*dA*dG*d[5mC]*d[5mC]*dG*d[5mC]*eT*e[5mC]*eA*eG*eA) [compound 771902] show?
77%

Bench note: what % Inhibition did 771393 (antisense eG*e[5mC]*eT*e[5mC]*e[5mC]*dG*dG*d[5mC]*dT*dG*d[5mC]*d[5mC]*d[5mC]*d[5mC]*dA*e[5mC]*e[5mC]*e[5mC]*e[5mC]*eG) [compound 771393] show?
0%

Bench note: what % Inhibition did 771747 (antisense eG*eT*eG*eT*eG*dT*dT*dT*d[5mC]*dA*dA*dA*dG*dG*dA*eA*eA*eA*eG*e[5mC]) [compound 771747] show?
10%

Bench note: what % Inhibition did 771367 (antisense e[5mC]*eT*eT*eG*eA*dT*dG*d[5mC]*dT*dG*dA*dT*dT*dA*dT*eT*eA*eA*eT*eG) [compound 771367] show?
0%

Bench note: what % Inhibition did 771782 (antisense eT*eA*eG*eG*eA*d[5mC]*dT*dG*dG*dA*dA*dG*dA*dG*d[5mC]*eT*eT*eT*eG*eG) [compound 771782] show?
50%

Bench note: what % Inhibition did 771851 (antisense eG*e[5mC]*eT*eT*eT*dG*dA*dA*dA*dA*d[5mC]*dA*dT*d[5mC]*d[5mC]*e[5mC]*eA*e[5mC]*eT*eT) [compound 771851] show?
43%

Bench note: what % Inhibition did 771734 (antisense e[5mC]*eT*e[5mC]*eA*eA*dA*d[5mC]*d[5mC]*dT*dT*dT*d[5mC]*dA*dG*dA*e[5mC]*e[5mC]*eA*eT*e[5mC]) [compound 771734] show?
64%

Bench note: what % Inhibition did 771884 (antisense e[5mC]*eT*eG*e[5mC]*e[5mC]*dA*d[5mC]*d[5mC]*d[5mC]*dT*dG*dA*dG*dA*dG*eT*eG*eT*eA*eG) [compound 771884] show?
3%

Bench note: what % Inhibition did 771358 (antisense eA*eG*eT*eT*eA*dA*dT*d[5mC]*dA*dT*dT*dA*d[5mC]*dT*d[5mC]*eG*eA*eG*eT*e[5mC]) [compound 771358] show?
36%

Bench note: what % Inhibition did 771408 (antisense eT*eG*e[5mC]*eT*eA*dA*dG*dG*dA*dG*d[5mC]*dG*dA*dA*d[5mC]*eA*eT*eG*eA*e[5mC]) [compound 771408] show?
36%

Bench note: what % Inhibition did 771867 (antisense eA*e[5mC]*eT*eG*eG*dG*d[5mC]*dT*dT*d[5mC]*dA*dG*d[5mC]*dA*dA*eA*eG*eA*eT*eA) [compound 771867] show?
19%

Bench note: what % Inhibition did 771412 (eT*e[5mC]*eG*e[5mC]*e[5mC]*d[5mC]*d[5mC]*dT*dT*d[5mC]*dT*d[5mC]*d[5mC]*d[5mC]*d[5mC]*eG*e[5mC]*eA*eG*e[5mC]; antisense) [compound 771412] show?
38%

Bench note: what % Inhibition did 771791 (antisense eG*eA*eG*eG*eA*dG*dG*dG*dA*dG*dA*dA*dA*d[5mC]*dT*e[5mC]*e[5mC]*eT*e[5mC]*eA) [compound 771791] show?
22%

Bench note: what % Inhibition did 771420 (eG*e[5mC]*e[5mC]*e[5mC]*eG*dG*dG*d[5mC]*d[5mC]*dG*d[5mC]*d[5mC]*dG*d[5mC]*d[5mC]*eA*e[5mC]*e[5mC]*eG*eG; antisense) [compound 771420] show?
54%
